// data source = paper PMC8895158

target: His-Src SH3 (UniProt P12931 84-145); assay: SPR
result.type: pKd
Notebook: values listed as pKd are -log10 of the concentration (mol/L).

Tell me pKd reported for RKLPPRPSK [RLP1 peptide]
5.00
